experiment: RP, Waters ACQUITY UPLC BEH C8, 100 × 2.1 mm, 1.7 µm, 55 °C, 0.6 mL/min, estimated dead time 0.37 min; A: 50% water + 25% acetonitrile + 25% isopropanol + 0.05% acetic acid + 20 µM phosphoric acid + 5 mM ammonium acetate; B: 50% acetonitrile + 50% isopropanol + 0.05% acetic acid + 5 mM ammonium acetate; gradient (min/%B) 0/1 0.1/1 2/30 11.5/90 12/99.9 12.5/99.9 12.55/65 12.65/30 12.75/1 12.95/1 13.25/1; details: stereoisomer not certain
Parameter log10(LC retention time): see the listing below.
PROPERTY: log10(LC retention time) (log10 of the value in min)

molecule="CCCCCCCCCCCCCCCCOCC(COP(=O)([O-])OCC[N+](C)(C)C)OC(=O)CCCCCCCCCCCCCC (stereo not drawn)" assay_value=0.81
molecule="CCCCCCCCCCCCCC(=O)OCC(O)COP(=O)([O-])OCC[N+](C)(C)C (stereo not drawn)" assay_value=0.13
molecule="C=C1C=CCC(C)(C)C1C=CC(C)=CC=CC(C)=CC=CC=C(C)C=CC=C(C)C=CC1=C(C)CC(O)CC1(C)C (stereo not drawn) [Anhydrolutein I]" assay_value=0.76
molecule="CCCCCCCCCCCCCCCCCC(=O)OC(CC(=O)[O-])C[N+](C)(C)C (stereo not drawn)" assay_value=0.36
molecule="CCCCCCCCCCCC(=O)OC(CC(=O)[O-])C[N+](C)(C)C (stereo not drawn)" assay_value=-0.06
molecule="CCCCCCCC(=O)OC(CC(=O)O)C[N+](C)(C)C (stereo not drawn)" assay_value=-0.34
molecule="CCCCCCCCCCCCCC=CC(O)C(CO)NC(=O)CCCCCCCCCCCCCCCCCCCCCCC (stereo not drawn)" assay_value=0.95
molecule="CCCCCCCCCCCCCCCCCCCCCCCC(=O)NC(CO)C(O)CCCCCCCCCCCCCCC (stereo not drawn)" assay_value=0.96
molecule="CCCCCCCCCCCCCCCCC(=O)OC(COC(=O)CCCCCCCCCCCCCCC)COP(=O)([O-])OCC[N+](C)(C)C (stereo not drawn)" assay_value=0.82
molecule="CCCCCCCCCCCCCC=CC(O)C(COP(=O)([O-])OCC[N+](C)(C)C)NC(=O)CCCCCCCCCCCCCCCCCCCCC (stereo not drawn)" assay_value=0.89
molecule="CCCCCCCCCCCCCCCCCCC(=O)OCC(O)COP(=O)([O-])OCC[N+](C)(C)C (stereo not drawn)" assay_value=0.43
molecule="CCCCCCCCCCCCCCCC(=O)NC(COP(=O)([O-])OCC[N+](C)(C)C)C(O)CCCCCCCCCCCCCCC (stereo not drawn)" assay_value=0.77
molecule="CCCCCCCCCCCCCCCC(=O)OCC(O)COP(=O)(O)O (stereo not drawn)" assay_value=0.20
molecule="CCCCCCCCCCCCCC=CC(O)C(COC1OC(CO)C(OC2OC(CO)C(O)C(O)C2O)C(O)C1O)NC(=O)CCCCCCCCCCCCCCCCCCCCC (stereo not drawn)" assay_value=0.90
molecule="CCCCCCCCCCCCCCCCCCCCCCCC(=O)OCC(O)COP(=O)([O-])OCC[N+](C)(C)C (stereo not drawn)" assay_value=0.66
molecule="CC(C=CC=C(C)C=CC1=C(C)CC(O)CC1(C)C)=CC=CC=C(C)C=CC=C(C)C=CC1=C(C)CC(O)CC1(C)C (stereo not drawn)" assay_value=0.56
molecule="CCCCCCCCCCCCCCCC(=O)OC(CO)COP(=O)([O-])OCC[N+](C)(C)C (stereo not drawn)" assay_value=0.24
molecule="CCCCCCCCCCCCCC=CC(O)C(COC1OC(CO)C(OC2OC(CO)C(O)C(O)C2O)C(O)C1O)NC(=O)CCCCCCCCCCCCCCCCCCCCCCC (stereo not drawn)" assay_value=0.92
molecule="CCCCCCCCCCCCCCCCCCCCCC(=O)OCC(O)COP(=O)([O-])OCC[N+](C)(C)C (stereo not drawn)" assay_value=0.57
molecule="CCCCCCCCCCCCCC=CC(O)C(CO)NC(=O)CCCCCCCCCCCCCCC (stereo not drawn)" assay_value=0.81
molecule="CCCCCCCCCCCCCCC=CC(O)C(COP(=O)([O-])OCC[N+](C)(C)C)NC(=O)CCCCCCCCCCCCCCC (stereo not drawn)" assay_value=0.77
molecule=CC(C)=CCCC(C)=CC=CC(C)=CC=CC(C)=CC=CC=C(C)C=CC=C(C)C=CC1=C(C)CCCC1(C)C assay_value=0.91
molecule="CC(C=CC=C(C)C=CC1=C(C)CC(O)CC1(C)C)=CC=CC=C(C)C=CC=C(C)C=CC1C(C)=CC(O)CC1(C)C (stereo not drawn)" assay_value=0.57
molecule="CCCCCCCCCCCCCCC=CC(O)C(COP(=O)([O-])OCC[N+](C)(C)C)NC(=O)CCCCCCCCCCCCCCCCC (stereo not drawn)" assay_value=0.82
molecule=CC1=C(/C=C/C(C)=C/C=C/C(C)=C/C=C/C=C(C)/C=C/C=C(C)/C=C/C2=C(C)CCCC2(C)C)C(C)(C)CCC1 assay_value=0.93
molecule="CCCCCCCCCCCCCCCCCCCCCCCCCC(=O)OC(CC(=O)[O-])C[N+](C)(C)C (stereo not drawn)" assay_value=0.71
molecule="CCCCCCCCCCCCCC=CC(O)C(COP(=O)([O-])OCC[N+](C)(C)C)NC(=O)CCCCCCCCCCCCCCCCCCC (stereo not drawn)" assay_value=0.85
molecule="CCCCCCCCCCCCCCCCCCCCOCC(O)COP(=O)([O-])OCC[N+](C)(C)C (stereo not drawn)" assay_value=0.52

* * *

test: RP, Waters ACQUITY UPLC BEH C8, 100 × 2.1 mm, 1.7 µm, 55 °C, 0.6 mL/min, estimated dead time 0.37 min; A: 50% water + 25% acetonitrile + 25% isopropanol + 0.05% acetic acid + 20 µM phosphoric acid + 5 mM ammonium acetate; B: 50% acetonitrile + 50% isopropanol + 0.05% acetic acid + 5 mM ammonium acetate; gradient (min/%B) 0/1 0.1/1 2/30 11.5/90 12/99.9 12.5/99.9 12.55/65 12.65/30 12.75/1 12.95/1 13.25/1; conditions: stereoisomer not certain
PROPERTY: LC retention time (min)

compound="CCCCCCCCCCCCCCCCCC(=O)OCC(CO)OC(=O)CCCCCCCCCCCCCCC (stereo not drawn)" assay_value=8.19
compound="CC(C)CCCC(C)C1CCC2C3CC=C4CC(O)CCC4(C)C3CCC12C (stereo not drawn)" assay_value=4.54
compound="CCCCCCCCCCCCCC=CC(O)C(CO)NC(=O)CCCCCCCCCCCCCCCCC (stereo not drawn)" assay_value=7.19
compound="CCCCCCCCCCCCCCCCC=COCC(O)COP(=O)([O-])OCC[N+](C)(C)C (stereo not drawn)" assay_value=2.65
compound="Cc1cc(O)cc2c1OC(C)(CCCC(C)CCCC(C)CCCC(C)C)CC2 (stereo not drawn)" assay_value=5.02
compound="CCCCCCCCCCCCCC=CC(O)C(COP(=O)([O-])OCC[N+](C)(C)C)NC(=O)CCCCCCCCCCCCCCCCC (stereo not drawn)" assay_value=6.41
compound="CCCCCCCCCCCCCC=CC(O)C(CO)NC(=O)CCCCCCCCCCCCCCCCCCCCCCCC (stereo not drawn)" assay_value=9.26
compound="CCCCCCCCCCCC=CC(O)C(COP(=O)([O-])OCC[N+](C)(C)C)NC(=O)CCCCCCCCCCCCCCCCCCCCC (stereo not drawn)" assay_value=7.23

* * *

assay: RP, Waters ACQUITY UPLC BEH C8, 100 × 2.1 mm, 1.7 µm, 55 °C, 0.6 mL/min, estimated dead time 0.37 min; A: 50% water + 25% acetonitrile + 25% isopropanol + 0.05% acetic acid + 20 µM phosphoric acid + 5 mM ammonium acetate; B: 50% acetonitrile + 50% isopropanol + 0.05% acetic acid + 5 mM ammonium acetate; gradient (min/%B) 0/1 0.1/1 2/30 11.5/90 12/99.9 12.5/99.9 12.55/65 12.65/30 12.75/1 12.95/1 13.25/1; conditions: stereoisomer not certain
PROPERTY: log10(LC retention time) (log10 of the value in min)

molecule="CC(C=CC1=C(C)CCCC1(C)C)=CC=CC(C)=CCO [Retinol]" assay_value=0.36
molecule="CCCCCCCCCC(=O)OC(CC(=O)[O-])C[N+](C)(C)C (stereo not given) [Decanoylcarnitine CAR(10:0)]" assay_value=-0.22
molecule="CCCCCCCCCCCCCCCC(=O)OC(CC(=O)[O-])C[N+](C)(C)C (stereo not given) [Palmitoylcarnitine CAR(16:0)]" assay_value=0.24
molecule="CC(C=CC=C(C)C=CC1=C(C)CCCC1(C)C)=CC=CC=C(C)C=CC=C(C)C=CC1=C(C)CC(O)CC1(C)C (stereo not drawn) [Beta-cryptoxanthin]" assay_value=0.81
molecule="CCCCCCCCCCCCCCCCOCC(COP(=O)([O-])OCC[N+](C)(C)C)OC(=O)CCCCCCCCCCCCC (stereo not given) [PC(O-16:0/14:0)]" assay_value=0.79
molecule="CCCCCCCCCCCCCCCCCCCCCCCC(=O)OC(CC(=O)[O-])C[N+](C)(C)C (stereo not given) [Tetracosanoylcarnitine CAR(24:0)]" assay_value=0.64
molecule="CCCCCCCCCCCCCCC=COCC(O)COP(=O)([O-])OCC[N+](C)(C)C (stereo not given) [LPC(P-16:0/0:0)]" assay_value=0.32
molecule="CCCCCCCCCCCCCCCCCCOCC(O)COP(=O)([O-])OCC[N+](C)(C)C (stereo not given) [LPC(O-18:0/0:0)]" assay_value=0.42
molecule="CCCCCCCCCCCCCCCC(=O)OCC(O)COP(=O)(O)OCCN (stereo not given) [LPE(16:0/0:0)]" assay_value=0.29
molecule="CCCCCCCCCCCCCC=CC(O)C(CO)NC(=O)CCCCCCCCCCCCCCCCCCCCC (stereo not given) [Cer(d18:1/22:0)]" assay_value=0.93
molecule="CC(C)=CCCC(C)=CCCC(C)=CC=CC(C)=CC=CC=C(C)C=CC=C(C)CCC=C(C)CCC=C(C)C [Zeta-carotene]" assay_value=0.92
molecule="CCCCCCCCCCCC=CC(O)C(CO)NC(=O)CCCCCCCCCCCCCCCCCCCCC (stereo not given) [Cer(d16:1/22:0)]" assay_value=0.90
molecule="CCCCCCCCCCCCCCCCOCC(COP(=O)([O-])OCC[N+](C)(C)C)OC(=O)CCCCCCCCCCCCCCC (stereo not given) [PC(O-16:0/16:0)]" assay_value=0.83
molecule="CCCCCCCCCCCCCCCCC=COCC(O)COP(=O)(O)OCCN (stereo not given) [LPE(P-18:0/0:0)]" assay_value=0.44
molecule="CCCCCCCCCCCCCCCCOCC(O)COP(=O)([O-])OCC[N+](C)(C)C (stereo not given) [LPC(O-16:0/0:0)]" assay_value=0.32
molecule="CCCCCCCCCCCCCCCC(=O)OCC(COP(=O)([O-])OCC[N+](C)(C)C)OC(=O)CCCCCCCCCCCCCCC (stereo not given) [PC(16:0/16:0)]" assay_value=0.80
molecule="CCCCCCCCCCCCCCCCCCCC(=O)OC(CC(=O)[O-])C[N+](C)(C)C (stereo not given) [Arachidyl carnitine CAR(20:0)]" assay_value=0.46
molecule="CCCCCCCCCCCCCCCCCC(=O)OCC(O)COP(=O)([O-])OCC[N+](C)(C)C (stereo not given) [LPC(18:0/0:0)]" assay_value=0.38
molecule="CCCCCCCCCCCCCC=CC(O)C(COC1OC(CO)C(OC2OC(CO)C(O)C(O)C2O)C(O)C1O)NC(=O)CCCCCCCCCCCCCCC (stereo not given) [LacCer(d18:1/16:0)]" assay_value=0.76
molecule="CCCCCCCCCCCCCCCC(=O)OCC(O)COP(=O)([O-])OCC[N+](C)(C)C (stereo not given) [LPC(16:0/0:0)]" assay_value=0.27
